# EC50 per record follows
# subject_of_test: T1, human PTH1R overexpressed on CHO cells (human, UniProt Q03431 27-593)
# T1 construct: whole, on cells; also called CHO human PTH1R; CHO Human PTHR
# T1 sequence (looked up): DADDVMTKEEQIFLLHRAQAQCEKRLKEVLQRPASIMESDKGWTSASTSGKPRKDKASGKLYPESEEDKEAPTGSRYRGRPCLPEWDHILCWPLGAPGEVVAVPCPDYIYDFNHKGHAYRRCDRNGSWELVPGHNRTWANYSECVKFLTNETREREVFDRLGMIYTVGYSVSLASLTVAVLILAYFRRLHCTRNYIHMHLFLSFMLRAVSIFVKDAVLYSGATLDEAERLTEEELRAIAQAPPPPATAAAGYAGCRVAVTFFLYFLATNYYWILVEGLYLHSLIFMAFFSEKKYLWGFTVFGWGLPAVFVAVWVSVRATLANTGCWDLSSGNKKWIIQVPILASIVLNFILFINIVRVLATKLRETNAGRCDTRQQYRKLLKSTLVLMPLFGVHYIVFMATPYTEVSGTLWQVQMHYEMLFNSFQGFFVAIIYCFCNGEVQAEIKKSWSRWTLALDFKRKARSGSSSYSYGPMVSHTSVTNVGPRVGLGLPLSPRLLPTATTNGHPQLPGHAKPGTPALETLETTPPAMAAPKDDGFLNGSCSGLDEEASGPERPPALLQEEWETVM
# procedure_summary: flow cytometry on CHO cells, 24 hr at 4 C
Enter your answer as a number in nM; do not include the unit.

// recorded EC50 for XPA.85.336 (antibody, V domains shown, Light-chain-shuffled variant of XPA.85.017) VH: EVQLVETGGGVVRPGGSLRLSCAASGFTFSSSAMSWVRQTPGKELQWVSAITPGGEGTYYADVVKGRFTISRDNSKDTLYLQMDSLRAEDTAVYYCARDLYGSYGDAFDIWGQGTLVTVSS VL: QSVLTQPPSVSAAPGQKVTISCSGTGSNIGSNYVAWYQQLPGTAPKLLIYDDNKRPSGTPDRFSGSKSGTSATLVIAGLQTGDEADYYCGTWDNTLNVGGVFGGGTQLTVL : 0.342

// recorded EC50 for XPA.85.335 (antibody, V domains shown, Light-chain-shuffled variant of XPA.85.017) VH: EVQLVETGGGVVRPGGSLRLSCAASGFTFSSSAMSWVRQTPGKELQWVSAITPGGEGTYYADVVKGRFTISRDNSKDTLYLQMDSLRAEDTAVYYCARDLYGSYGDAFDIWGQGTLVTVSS VL: QSVLTQPPSVSAAPGQRVTISCSGNTSNIGNNFVSWYQQLPGTAPKLLIYDDNKRPSGIPDRFSGSKSGTSATLGISGLQTGDEADYYCGTWDNSLNPPWVFGGGTQLTVL : 0.265

// recorded EC50 for XPA.85.287 (antibody, V domains shown, also called Ab287) VH: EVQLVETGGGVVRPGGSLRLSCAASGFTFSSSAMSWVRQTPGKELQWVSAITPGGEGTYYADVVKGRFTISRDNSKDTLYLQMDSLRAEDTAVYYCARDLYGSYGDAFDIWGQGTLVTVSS VL: SYVLTQPPSVSVAPGQTARITCSGDKLGDRYVSWYQQKPGQSPVLVMFEDTGRPAGIPERFSGSNSGNTATLTISGTQAEDEADYYCQAWGTSWVFGGGTQLTVL : 0.044
